tgt: fusion protein PRK
Sequence (chain, as listed by the source): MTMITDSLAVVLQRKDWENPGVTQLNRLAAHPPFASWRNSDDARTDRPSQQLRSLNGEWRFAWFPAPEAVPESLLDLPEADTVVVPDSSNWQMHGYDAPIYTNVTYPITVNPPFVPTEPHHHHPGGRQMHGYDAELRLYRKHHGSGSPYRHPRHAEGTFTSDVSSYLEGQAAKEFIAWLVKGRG
recordedMetric: relative cleavage efficiency

• OmpT protease variant OmpT D97A (protein) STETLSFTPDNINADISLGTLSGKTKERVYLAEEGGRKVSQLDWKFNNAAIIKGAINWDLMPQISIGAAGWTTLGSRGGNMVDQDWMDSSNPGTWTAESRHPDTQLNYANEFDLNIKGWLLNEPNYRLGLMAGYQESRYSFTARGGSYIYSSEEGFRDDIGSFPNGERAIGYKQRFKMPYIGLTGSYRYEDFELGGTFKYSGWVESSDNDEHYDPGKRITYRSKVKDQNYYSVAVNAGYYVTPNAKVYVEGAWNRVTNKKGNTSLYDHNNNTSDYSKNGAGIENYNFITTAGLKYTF = < 3%
• OmpT protease variant OmpT D97Q (protein) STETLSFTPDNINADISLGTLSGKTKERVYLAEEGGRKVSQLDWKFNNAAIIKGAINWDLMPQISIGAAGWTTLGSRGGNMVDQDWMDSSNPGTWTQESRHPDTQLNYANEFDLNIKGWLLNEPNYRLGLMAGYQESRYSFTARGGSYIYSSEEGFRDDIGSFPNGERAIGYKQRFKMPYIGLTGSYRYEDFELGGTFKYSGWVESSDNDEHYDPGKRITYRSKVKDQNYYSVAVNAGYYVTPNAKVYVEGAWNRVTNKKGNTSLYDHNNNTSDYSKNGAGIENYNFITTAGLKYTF = < 3%
• OmpT protease variant OmpT D97G (protein) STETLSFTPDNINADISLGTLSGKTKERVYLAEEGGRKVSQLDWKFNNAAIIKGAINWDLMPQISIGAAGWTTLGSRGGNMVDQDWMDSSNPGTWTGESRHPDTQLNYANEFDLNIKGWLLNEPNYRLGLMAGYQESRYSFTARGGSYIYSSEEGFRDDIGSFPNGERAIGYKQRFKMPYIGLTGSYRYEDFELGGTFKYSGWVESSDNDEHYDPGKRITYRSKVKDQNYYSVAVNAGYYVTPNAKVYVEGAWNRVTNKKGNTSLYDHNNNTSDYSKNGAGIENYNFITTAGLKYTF = less than 3.0%
• OmpT protease variant OmpT D97P (protein) STETLSFTPDNINADISLGTLSGKTKERVYLAEEGGRKVSQLDWKFNNAAIIKGAINWDLMPQISIGAAGWTTLGSRGGNMVDQDWMDSSNPGTWTPESRHPDTQLNYANEFDLNIKGWLLNEPNYRLGLMAGYQESRYSFTARGGSYIYSSEEGFRDDIGSFPNGERAIGYKQRFKMPYIGLTGSYRYEDFELGGTFKYSGWVESSDNDEHYDPGKRITYRSKVKDQNYYSVAVNAGYYVTPNAKVYVEGAWNRVTNKKGNTSLYDHNNNTSDYSKNGAGIENYNFITTAGLKYTF = less than 3.0%
